Molecular target: T1, human B7-H1 expressed on cells (human, UniProt Q9NZQ7 19-290)
T1 construct: whole, on cells; also called PD-L1; huB7-H1
T1 sequence (Q9NZQ7 19-290): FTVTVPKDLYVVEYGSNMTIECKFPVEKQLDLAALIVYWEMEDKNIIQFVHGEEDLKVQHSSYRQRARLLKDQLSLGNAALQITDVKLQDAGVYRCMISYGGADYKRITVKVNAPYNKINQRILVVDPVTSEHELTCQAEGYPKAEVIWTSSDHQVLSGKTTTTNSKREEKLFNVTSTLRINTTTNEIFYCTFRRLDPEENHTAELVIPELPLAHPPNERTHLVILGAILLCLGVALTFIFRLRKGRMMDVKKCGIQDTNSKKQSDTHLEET
Experiment: FACS, 1 µg/ml antibody, anti-CD3-activated human T cells
measured-attribute: geo mean

input: Recorded geo mean of 2.9D10 (antibody, V domains shown, Tested as hybridoma supernatant or purified antibody; also called mAb 2.9D10) VH: EVQLVESGGGLVQPGGSLRLSCAASGFTFSSYWMSWVRQAPGKGLEWVANIKQDGGEQYYVDSVKGRFTISRDNAKNSLYLQMNSLRAEDTAVYYCARDWNYGYYDMDVWGQGTTVTVSS VL: EIVLTQSPGTLSLSPGERATLSCRASQSVSSNYLAWFQQKPGQAPRLLIFGTSSRATGIPDRFSGSGSGTDFTLTISRLEPEDFAVYYCQQYGSSIFTFGPGTKVDIK , please.
output: 49
